test: Oral bioavailability in Sprague-Dawley rat at 20 mg/kg, after 0.083 to 24 hrs
Format: ADME, organism-based
condition.parameters: in vivo
readout.kind: bioavailability
For clarity, give the value followed by its unit.

Query: bioavailability; subject: CCN1C(=O)c2cccc3c(NS(=O)(=O)c4cc(Br)ccc4OC)ccc1c23 76.8%

====

study.target: Bromodomain-containing protein 2 (Homo sapiens) (UniProt P25440)
Sequence (P25440 whole entry, looked up, the tested form may be a part): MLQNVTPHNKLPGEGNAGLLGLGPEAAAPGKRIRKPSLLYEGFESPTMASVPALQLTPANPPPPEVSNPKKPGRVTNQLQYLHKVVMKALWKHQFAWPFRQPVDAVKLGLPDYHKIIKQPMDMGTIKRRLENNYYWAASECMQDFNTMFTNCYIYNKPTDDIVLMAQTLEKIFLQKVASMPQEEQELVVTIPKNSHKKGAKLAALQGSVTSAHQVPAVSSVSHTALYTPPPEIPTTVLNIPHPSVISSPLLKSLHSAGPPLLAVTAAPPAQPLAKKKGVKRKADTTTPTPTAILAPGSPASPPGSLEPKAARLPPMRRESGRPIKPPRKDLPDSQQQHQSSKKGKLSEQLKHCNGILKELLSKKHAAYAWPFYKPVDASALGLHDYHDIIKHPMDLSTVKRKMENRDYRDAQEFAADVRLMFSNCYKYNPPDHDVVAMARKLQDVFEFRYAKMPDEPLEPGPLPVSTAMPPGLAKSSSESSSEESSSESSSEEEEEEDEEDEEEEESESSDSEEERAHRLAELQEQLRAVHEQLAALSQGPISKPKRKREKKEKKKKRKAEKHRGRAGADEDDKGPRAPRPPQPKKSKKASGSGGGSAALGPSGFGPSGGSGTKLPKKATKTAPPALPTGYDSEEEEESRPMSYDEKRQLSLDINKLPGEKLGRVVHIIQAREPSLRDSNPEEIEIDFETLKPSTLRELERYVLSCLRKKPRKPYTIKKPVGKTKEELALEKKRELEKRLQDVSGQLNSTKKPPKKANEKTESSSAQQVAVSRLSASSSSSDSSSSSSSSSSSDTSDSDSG
test: Binding affinity to human His6-tagged BRD2 bromodomain 1 (K77 to N194 residues) expressed in Escherichia coli BL21(DE3) cells at 200 uM incubated for 30 mins by SYPRO orange staining based fluorescence thermal shift assay
For each of the compounds below, state its ΔTm.

Study these solved cases before continuing.
CCN1C(=O)c2cccc3c(S(=O)(=O)Nc4ccc(F)cc4)ccc1c23; 3.3 °C
CCN1C(=O)c2cccc3c(S(=O)(=O)NCCCCNC(=O)OC(C)(C)C)ccc1c23; 3.2 °C
CCN1C(=O)c2cccc3c(NS(=O)(=O)c4ccc(F)cc4F)ccc1c23; 5.5 °C
CCCCS(=O)(=O)Nc1ccc2c3c(cccc13)C(=O)N2CC; 5 °C
CCN1C(=O)c2cccc3c(S(=O)(=O)NCC4CCN(C(C)=O)CC4)ccc1c23; 1.4 °C

Batch lookup, ΔTm per entry.
1. CCN1C(=O)c2cccc3c(NS(=O)(=O)c4cc(Br)ccc4OC)ccc1c23
2. CCCNS(=O)(=O)c1ccc2c3c(cccc13)C(=O)N2CC

["5.6 °C", "4.7 °C"]

Batch lookup, ΔTm per entry.
1. CCN1C(=O)c2cccc3c(NS(=O)(=O)c4cc(Cl)ccc4OC)ccc1c23
2. CCN1C(=O)c2cccc3c(NS(=O)(=O)C4CCCCC4)ccc1c23
3. CCN1C(=O)c2cccc3c(S(=O)(=O)NCCCN4CCN(C)CC4)ccc1c23
4. CCOC(=O)Nc1cc(-c2ccc(C)c(NS(C)(=O)=O)c2)nn2c(C)nnc12
5. CCN1C(=O)c2cccc3c(S(=O)(=O)NC4CCCCC4)ccc1c23
6. COc1ccc(CCc2nc3cc(-c4c(C)noc4C)ccc3n2C[C@H](C)N2CCOCC2)cc1Cl
7. CCN1C(=O)c2cccc3c(S(=O)(=O)Nc4ccccc4C(=O)O)ccc1c23

["5.9 °C", "5.8 °C", "2 °C", "6.9 °C", "5.9 °C", "2.4 °C", "3.2 °C"]

Query: ΔTm; subject: CCN1C(=O)c2cccc3c(NS(=O)(=O)c4ccc(F)cc4)ccc1c23 5.1 °C

====

test: Half life in rat liver microsomes at 10 uM by HPLC-MS/MS analysis in presence of NADPH
Format: ADME
readout.kind: half-life at 10 µM (min)
Answers are plain numbers, in min.

Query: half-life at 10 µM; subject: CCN1C(=O)c2cccc3c(S(=O)(=O)NC4CCCCC4)ccc1c23 34.3

====

study.target: UniProtKB Q92793
Sequence (Q92793 2-2442 limits assumed): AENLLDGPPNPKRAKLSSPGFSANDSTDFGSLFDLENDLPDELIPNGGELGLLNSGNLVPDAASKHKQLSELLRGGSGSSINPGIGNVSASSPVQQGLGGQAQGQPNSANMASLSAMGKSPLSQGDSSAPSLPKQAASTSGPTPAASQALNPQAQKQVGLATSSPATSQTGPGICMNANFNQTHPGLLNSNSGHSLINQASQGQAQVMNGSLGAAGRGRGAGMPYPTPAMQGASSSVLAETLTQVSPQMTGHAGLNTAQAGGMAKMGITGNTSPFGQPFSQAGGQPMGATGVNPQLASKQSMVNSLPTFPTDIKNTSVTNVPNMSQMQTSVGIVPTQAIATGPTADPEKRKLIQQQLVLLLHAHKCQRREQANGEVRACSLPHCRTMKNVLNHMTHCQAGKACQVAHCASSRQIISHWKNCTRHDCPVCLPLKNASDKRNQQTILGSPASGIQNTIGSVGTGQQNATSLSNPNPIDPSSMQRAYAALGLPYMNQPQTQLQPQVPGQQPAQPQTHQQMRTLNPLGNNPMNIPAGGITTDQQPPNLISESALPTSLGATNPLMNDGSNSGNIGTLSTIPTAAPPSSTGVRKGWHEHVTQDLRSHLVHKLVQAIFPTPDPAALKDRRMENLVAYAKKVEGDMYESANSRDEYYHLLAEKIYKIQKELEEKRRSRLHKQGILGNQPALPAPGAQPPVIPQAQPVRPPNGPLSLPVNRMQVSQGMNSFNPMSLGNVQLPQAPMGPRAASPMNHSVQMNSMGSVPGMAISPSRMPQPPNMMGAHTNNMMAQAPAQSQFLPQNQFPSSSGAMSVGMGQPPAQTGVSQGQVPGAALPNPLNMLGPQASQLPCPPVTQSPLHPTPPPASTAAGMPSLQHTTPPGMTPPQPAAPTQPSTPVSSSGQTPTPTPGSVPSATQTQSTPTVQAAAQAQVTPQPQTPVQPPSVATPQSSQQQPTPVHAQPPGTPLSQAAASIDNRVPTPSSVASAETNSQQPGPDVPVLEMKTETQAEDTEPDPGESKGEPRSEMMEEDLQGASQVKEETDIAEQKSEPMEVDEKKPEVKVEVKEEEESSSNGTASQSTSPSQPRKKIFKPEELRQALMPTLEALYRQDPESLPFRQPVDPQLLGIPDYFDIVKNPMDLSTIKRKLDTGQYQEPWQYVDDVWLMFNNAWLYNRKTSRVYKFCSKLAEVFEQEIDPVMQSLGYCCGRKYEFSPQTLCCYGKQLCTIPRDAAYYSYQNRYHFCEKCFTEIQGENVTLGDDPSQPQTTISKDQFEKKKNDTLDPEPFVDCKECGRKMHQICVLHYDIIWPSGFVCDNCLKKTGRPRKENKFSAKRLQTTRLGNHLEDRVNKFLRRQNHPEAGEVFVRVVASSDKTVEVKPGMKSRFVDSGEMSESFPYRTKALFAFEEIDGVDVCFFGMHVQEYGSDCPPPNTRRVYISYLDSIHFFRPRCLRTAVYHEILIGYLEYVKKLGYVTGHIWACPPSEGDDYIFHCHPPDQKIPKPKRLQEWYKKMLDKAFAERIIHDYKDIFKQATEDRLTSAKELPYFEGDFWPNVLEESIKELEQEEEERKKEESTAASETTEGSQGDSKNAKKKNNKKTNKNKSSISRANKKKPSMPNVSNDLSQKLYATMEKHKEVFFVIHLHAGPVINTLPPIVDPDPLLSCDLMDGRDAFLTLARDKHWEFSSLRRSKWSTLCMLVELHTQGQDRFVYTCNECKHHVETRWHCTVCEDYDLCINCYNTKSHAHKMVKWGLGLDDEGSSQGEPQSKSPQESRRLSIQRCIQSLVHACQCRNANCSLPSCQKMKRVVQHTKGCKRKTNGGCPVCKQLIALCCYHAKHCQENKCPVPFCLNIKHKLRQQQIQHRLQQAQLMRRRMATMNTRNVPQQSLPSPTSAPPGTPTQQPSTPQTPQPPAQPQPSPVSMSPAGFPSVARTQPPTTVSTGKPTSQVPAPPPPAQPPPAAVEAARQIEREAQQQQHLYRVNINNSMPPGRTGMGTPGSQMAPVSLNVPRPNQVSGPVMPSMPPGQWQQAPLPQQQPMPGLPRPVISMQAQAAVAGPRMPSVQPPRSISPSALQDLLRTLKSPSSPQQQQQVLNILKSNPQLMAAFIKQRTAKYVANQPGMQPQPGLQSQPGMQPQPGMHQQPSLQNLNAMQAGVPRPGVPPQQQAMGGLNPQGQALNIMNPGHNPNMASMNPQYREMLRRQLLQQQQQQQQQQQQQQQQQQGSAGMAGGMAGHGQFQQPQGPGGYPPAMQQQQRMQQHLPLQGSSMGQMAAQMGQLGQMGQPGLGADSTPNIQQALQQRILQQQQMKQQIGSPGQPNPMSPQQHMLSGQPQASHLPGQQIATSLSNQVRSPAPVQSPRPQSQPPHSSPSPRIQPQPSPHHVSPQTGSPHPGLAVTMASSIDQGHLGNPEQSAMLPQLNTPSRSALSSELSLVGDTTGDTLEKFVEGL
test: Binding affinity to human His6-tagged CREBBP (R1081 to G1197 residues) expressed in Escherichia coli BL21(DE3) cells at 200 uM incubated for 30 mins by SYPRO orange staining based fluorescence thermal shift assay
Decision: ΔTm compared against 2 °C; not below it gives True, below it gives False.

Field: example entries. Status: answers known.
CCN1C(=O)c2cccc3c(NS(=O)(=O)c4cc(Br)ccc4OC)ccc1c23; True
CCN1C(=O)c2cccc3c(NS(=O)(=O)C4CCCCC4)ccc1c23; True
CCN1C(=O)c2cccc3c(NS(=O)(=O)c4cc(Cl)ccc4OC)ccc1c23; False
CCN1C(=O)c2cccc3c(S(=O)(=O)NCC4CCN(C(C)=O)CC4)ccc1c23; False

Kindly determine if ΔTm recorded for COc1ccc(CCc2nc3cc(-c4c(C)noc4C)ccc3n2C[C@H](C)N2CCOCC2)cc1Cl is above or exactly 2 °C. True

Kindly determine if ΔTm recorded for CCN1C(=O)c2cccc3c(NS(=O)(=O)c4ccc(F)cc4)ccc1c23 is above or exactly 2 °C. True

Kindly determine if ΔTm recorded for CCN1C(=O)c2cccc3c(S(=O)(=O)Nc4ccccc4C(=O)O)ccc1c23 is above or exactly 2 °C. True

Kindly determine if ΔTm recorded for CCN1C(=O)c2cccc3c(S(=O)(=O)NCCCCNC(=O)OC(C)(C)C)ccc1c23 is above or exactly 2 °C. False

Kindly determine if ΔTm recorded for CCOC(=O)Nc1cc(-c2ccc(C)c(NS(C)(=O)=O)c2)nn2c(C)nnc12 is above or exactly 2 °C. True

Kindly determine if ΔTm recorded for CCN1C(=O)c2cccc3c(S(=O)(=O)Nc4ccc(F)cc4)ccc1c23 is above or exactly 2 °C. True
